Listed here: items and their measured % binding of analyte mAb.
# tested_target: T1, Recombinant human PSGL-1(ECD)-hFc1 (R&D Systems, Cat. 3345-PS) (human, UniProt Q14242 42-305)
# T1 construct: Bought; Gln42-Val295 counted on AAC50061; also called PSGL-1-Fc; PSGL-1-hFc1 chimera; not shown: human IgG1 Fc, Pro100-Lys330
# T1 sequence: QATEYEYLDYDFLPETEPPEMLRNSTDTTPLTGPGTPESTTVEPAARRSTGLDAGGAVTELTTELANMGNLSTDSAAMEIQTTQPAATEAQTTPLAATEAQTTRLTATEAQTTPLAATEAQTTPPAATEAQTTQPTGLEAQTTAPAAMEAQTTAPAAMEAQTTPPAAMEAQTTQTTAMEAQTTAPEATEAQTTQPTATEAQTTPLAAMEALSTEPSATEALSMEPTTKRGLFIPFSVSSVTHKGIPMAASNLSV
# measurement_notes: Octet tandem; competitor 18K07
Give the value, in units of %, as a plain number.

Known results for binders:
[[record]]
binder = "15A7 (antibody, V domains shown, Control mAb, recombinant; also called h15A7; 15A17) VH: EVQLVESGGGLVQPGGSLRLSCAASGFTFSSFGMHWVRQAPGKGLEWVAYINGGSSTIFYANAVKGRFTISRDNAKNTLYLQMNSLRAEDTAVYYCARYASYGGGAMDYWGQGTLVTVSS VL: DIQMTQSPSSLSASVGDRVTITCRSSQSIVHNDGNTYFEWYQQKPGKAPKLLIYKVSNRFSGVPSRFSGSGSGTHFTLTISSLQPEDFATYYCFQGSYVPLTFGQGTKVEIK"
metric_name = "% binding of analyte mAb"
value_units = "%"
assay_value = 91.5

[[record]]
binder = "19L04 (antibody, IgG4, V domains shown, From mouse immunisation; only variable domains given) VH: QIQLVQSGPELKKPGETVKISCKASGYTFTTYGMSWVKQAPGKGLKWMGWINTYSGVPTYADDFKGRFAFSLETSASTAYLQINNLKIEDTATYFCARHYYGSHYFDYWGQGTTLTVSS VL: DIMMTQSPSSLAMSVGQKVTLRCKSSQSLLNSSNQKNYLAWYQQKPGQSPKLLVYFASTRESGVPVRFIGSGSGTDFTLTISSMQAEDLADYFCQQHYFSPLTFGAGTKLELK"
metric_name = "% binding of analyte mAb"
value_units = "%"
assay_value = 50.5

[[record]]
binder = "18F17 (antibody, V domains shown, Non-functional anti-PSGL-1 mAb (Verseau); only variable domains given) VH: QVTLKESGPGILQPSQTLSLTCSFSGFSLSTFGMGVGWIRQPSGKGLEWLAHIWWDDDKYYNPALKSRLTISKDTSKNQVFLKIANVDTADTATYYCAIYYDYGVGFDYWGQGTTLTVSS VL: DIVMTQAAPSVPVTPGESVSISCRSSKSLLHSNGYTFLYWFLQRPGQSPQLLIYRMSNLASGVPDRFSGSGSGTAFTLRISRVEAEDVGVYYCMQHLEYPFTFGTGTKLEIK"
metric_name = "% binding of analyte mAb"
value_units = "%"
assay_value = 90.7


// field: % binding of analyte mAb; key: 19N05 (antibody, V domains shown, From mouse immunisation; only variable domains given) VH: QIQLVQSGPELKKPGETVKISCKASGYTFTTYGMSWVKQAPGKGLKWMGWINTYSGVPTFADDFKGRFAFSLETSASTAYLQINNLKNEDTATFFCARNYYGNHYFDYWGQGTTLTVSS VL: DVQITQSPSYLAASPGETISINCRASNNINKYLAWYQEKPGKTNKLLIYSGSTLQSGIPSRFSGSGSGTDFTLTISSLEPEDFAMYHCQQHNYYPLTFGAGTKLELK ; value = 0
